- Tested System: NHERF2_2, Q15599
- Sequence (Q15599 142-238): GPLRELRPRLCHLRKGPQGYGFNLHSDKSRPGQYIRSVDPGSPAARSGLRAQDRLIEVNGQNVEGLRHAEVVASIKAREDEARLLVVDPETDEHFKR
- Assay Summary: holdup assay
- Design: key: below the threshold = too weak to quantify, mostly under pKd 3.1 to 4
- Setup Conditions: plain residues with an end cap or a label only (N-terminal biotin on a linker: ado-ado)
Property Label: pKd

binder="TFSRRPKTRV [CD226, Q15762]" property_label=pKd data_value="below the threshold"
binder="FHSIKQSTAV [CRHR1, P34998]" property_label=pKd data_value="below the threshold"
binder="KAEEKPPSKV [SCN4B, Q8IWT1]" property_label=pKd data_value="below the threshold"
binder="PSVYSRSQYV [CLDN8, P56748]" property_label=pKd data_value="below the threshold"
binder="FLVTEFNVML [DFNB31, Q9P202]" property_label=pKd data_value=4.04
binder="PEKVSNTTVV [IGSF5, Q9NSI5]" property_label=pKd data_value="below the threshold"
binder="NSTHNLKDYV [CLDN20, P56880]" property_label=pKd data_value="below the threshold"
binder="SSSVNVSSNL [CXCR1, P25024]" property_label=pKd data_value=4.44
binder="SQDPKKPSRV [CBY2, Q8NA61]" property_label=pKd data_value="below the threshold"
binder="LLQEEWETVM [PTH1R, Q03431]" property_label=pKd data_value=5.14
binder="FVFESRKEIL [TBPL1, P62380]" property_label=pKd data_value="below the threshold"
binder="EPAKETTTNV [SLC2A3, P11169]" property_label=pKd data_value=3.69
binder="QLKSGRDSTV [TMEM178A, Q8NBL3]" property_label=pKd data_value=3.55
binder="ELKAEDEVQI [DCHS2, Q6V1P9]" property_label=pKd data_value="below the threshold"
binder="EFKQTSSFLV [JAM1, Q9Y624]" property_label=pKd data_value="below the threshold"
binder="NTALVESEDL [PALLS, Q8WX93;Q8WX93-1]" property_label=pKd data_value=4.64
